// data source = ChEMBL document CHEMBL1154198

system: Plasmodium falciparum; test: ST_JUDE: Plasmodium falciparum K1 EC50 (uM) as measured by SYBR green dye; assay type: functional, organism-based
MEASURED METRIC: log10 of EC50 (log10 of the value in nM)
Would you kindly interpret these values as log10 of EC50 expressed in nM?

Task: Quick check: log10 of EC50 of `Oc1ccc(-c2nc(-c3ccc4oc5ccc(-c6[nH]c(-c7ccc(O)cc7)nc6-c6ccccc6)cc5c4c3)c(-c3ccccc3)[nH]2)cc1` ?
Result: 3.48

Task: Requested field: log10 of EC50. Item: CC1CCCCN1CCCNC(=O)c1ccc2c(c1)sc1nc(-c3ccc(F)cc3)cn12 (stereo unspecified)
Result: 3.20

Task: Need log10 of EC50 of `CCCOc1ccc(-c2[nH]ncc2Oc2ccccc2)c(O)c1` , thanks.
Result: 3.40

Task: Look up log10 of EC50: Cc1ccc(-n2cc(CN3CCCC(C(N)=O)C3)c(-c3cccc(C)c3)n2)cc1 (stereo unspecified)
Result: 3.63

Task: Reported log10 of EC50 for CCOC(=O)c1ccc(OCC2c3cc(OC)c(OC)cc3CCN2C(=O)Nc2ccccc2)cc1 (stereo unspecified) : what is it?
Result: 2.89

Task: Requested field: log10 of EC50. Item: `COc1ccccc1NC(=O)CN1CCN(C(=O)c2ccco2)CC1`
Result: 3.68

Task: Need log10 of EC50, item `C=CCN1C=CC=C/C1=C\c1sc2ccccc2[n+]1C`
Result: 3.08

Task: For N=c1n(CCN2CCCCC2)c2ccccc2n1CC(O)c1ccc(Cl)c(Cl)c1 (stereo unspecified) , what is its reported log10 of EC50?
Result: 2.38

Task: What measured log10 of EC50 goes with `COc1ccc(Nc2cc(C)nc(Nc3ccc(NS(=O)(=O)c4cccc(F)c4)cc3)n2)cc1` ?
Result: 3.86

Task: Report log10 of EC50 for `COc1ccc(OC)c(NC(=O)CSc2nc(-c3ccccc3Cl)ns2)c1` please.
Result: 3.15

Task: Please report the recorded log10 of EC50 for `CC(C)C(=O)N1CCN(c2ccc([N+](=O)[O-])c(NC3CC3)c2)CC1` .
Result: 3.83

Task: Entry `O=C1C(Nc2cccc(F)c2)=C(N2CCCCC2)C(=O)c2ccccc21` has what log10 of EC50?
Result: 2.67

Task: Fill blank: measured log10 of EC50 of the compound `CC1CCN(Cc2c(O)ccc3ccccc23)CC1` is ____.
Result: 2.69

Task: Entry under review: CCc1ccccc1NC(=O)C1c2ccccc2C(=O)N(CC(C)C)C1c1cccs1 (stereo unspecified) . Reported log10 of EC50?
Result: 2.72

Task: Given `CCc1cc(-c2[nH]nc(C)c2Oc2ccc(Cl)cc2)c(O)cc1OC` , state its recorded log10 of EC50.
Result: 3.51

----------
system: Plasmodium falciparum; experiment: ST_JUDE: Cytotoxicity against Plasmodium falciparum 3D7; assay type: functional, organism-based
MEASURED METRIC: EC50 (nM)
# number only, unit nM dropped from output

Task: Which EC50 is listed for `CCN(CC)CCCOC(=O)c1c(C)oc2cc3c(C(=O)OCCCN(CC)CC)c(C)oc3cc12` ?
Result: 2140

Task: Consider the compound shown here: `CCCCOc1ccc(N(C(C)=O)C2=C(N3CCOCC3)C(=O)c3ccccc3C2=O)cc1` What is its recorded EC50?
Result: 70.8

Task: Data request, read-out EC50, for CCOC(=O)C1=C(C)N=c2s/c(=C/c3ccccc3O)c(=O)n2C1c1ccccc1 (stereo unspecified)
Result: 317

Task: Query (compound): CCCO/C(O)=C1\C(C)=NC2=C(C(=O)CC(c3ccc(OC)c(OC)c3)C2)C1c1ccccc1F (stereo unspecified) ; field requested: EC50
Result: 111

Task: Which EC50 is listed for `CCCCCCCn1ccc(=N)cc1` ?
Result: 2190

Task: # get_value(readout='EC50', item= `Cc1oc2c(c1C(=O)NCCC(C)C)C(=O)c1ccccc1C2=O` )
Result: 1230

Task: Data request, read-out EC50, for CO/C(O)=C1\C(C)=NC2=C(C(=O)CC(c3ccc(OC)c(OC)c3)C2)C1c1ccc(F)cc1 (stereo unspecified)
Result: 236

Task: Item `CCOc1ccc(N(C(C)=O)C2=C(N(C)C)C(=O)c3ccccc3C2=O)cc1` has what recorded EC50?
Result: 2.7

Task: For `CCOC(=O)C1(Cc2ccc(Cl)cc2)CCN(Cc2ccccc2O)CC1` , what is its reported EC50?
Result: 2000

Task: Could you share which EC50 value was measured for COc1ccc(C2CC3=NC(C)=C(C(=O)OC(C)C)C(c4ccccc4OC)C3=C(O)C2)cc1OC (stereo unspecified) ?
Result: 711

Task: Please look up its EC50: `CC(C)(C)c1ccc(S(=O)(=O)NC2=C/C(=N\c3ccc(O)cc3)C(=O)c3ccccc32)cc1`
Result: 600

Task: Consider the compound `CC[n+]1c(/C=C/c2ccc(N(C)C)cc2)ccc2cc(OC)ccc21` and give its measured EC50.
Result: 247

Task: Fill in the blank: the reported EC50 of `Cc1ccc(N2C(N)=NC(N)=NC2(C)C)cc1` is ____.
Result: 21.4

Task: Which EC50 value belongs to `C[N+](C)(C)c1nc(N2CCOCC2)nc(N(c2ccccc2)c2ccccc2)n1` ?
Result: 396

Task: Entry `Cc1ccc2c(c1)N(C)/C(=C/c1sc3ccccc3[n+]1CCO)S2` has what EC50?
Result: 320

Task: What does the data say about its EC50? Entry: `CC(C)c1ccc(S(=O)(=O)NC2=C/C(=N\c3ccc(O)cc3)C(=O)c3ccccc32)cc1`
Result: 547

Task: Recorded EC50 of C=CCn1c(=N)n(CC(O)c2ccc(Cl)c(Cl)c2)c2ccccc21 (stereo unspecified) , please.
Result: 1080

Task: What value of EC50 has been recorded for this entry: `c1ccc(CCNc2ccnc3cc4ccccc4cc23)cc1`
Result: 267

Task: Using the record for `COc1ccccc1/N=C1\C=C(NS(=O)(=O)c2ccc(C(C)C)cc2)c2ccccc2C1=O` , report its EC50.
Result: 450

Task: EC50 for `CCN(CC)c1ccc(/C=C/c2ccc3ccc(OC)cc3[n+]2CC)cc1` ?
Result: 422

Task: Can you share its EC50? I mean this compound: CCCCN(CCCC)CC(O)COc1ccccc1C(=O)Nc1ccccc1 (stereo unspecified)
Result: 108

----------
test: ST_JUDE: Cytotoxicity using luciferase to measure ATP as an indicator of the viability of human epithelial embryonic kidney cells (HEK293); type: toxicity, cell-based
Please provide measured EC50 for the entries that follow.

Task: Item `CCc1ccc(Nc2cc(C)c3ccc(O)cc3n2)cc1` has what recorded EC50?
Result: > 43.6 µM

Task: Please look up its EC50: COc1ccc(NC(=O)C2c3ccccc3C(=O)N(CC(C)C)C2c2cccs2)cc1OC (stereo not given)
Result: > 44 µM

Task: Consider the molecule shown here: `CCN(CC)Cc1cc(Nc2ccnc3cc(Cl)ccc23)ccc1O` What is its recorded EC50?
Result: > 40.2 µM

Task: Field request: EC50 | item: COc1ccc(C2CC(=O)NC3=C2C(=O)CC(c2ccc(F)cc2)C3)cc1OC (stereo not given)
Result: > 41.4 µM

Task: Report EC50 for `Cc1cccc(CN2CCC(CNC(=S)Nc3ccc4nc(N5CCN(C)CC5)cc(C)c4c3)CC2)c1` please.
Result: 13.6 µM

Task: // EC50 lookup, key: `Cc1c2[nH]c3ccccc3c2c2c([n+]1C)CC(C)(C)CC2`
Result: > 55.5 µM

Task: Consider the molecule `CCOc1ccc(N(C(C)=O)C2=C(N3CCOCC3)C(=O)c3ccccc3C2=O)cc1` and give its measured EC50.
Result: 13.1 µM

Task: Which EC50 value belongs to Cc1ccc(C(O)(CNCc2ccccc2)c2ccc(Br)cc2)cc1 (stereo not given) ?
Result: > 48.3 µM

Task: For the molecule `CCCN(C(=O)C(=O)Nc1ccc2nc3n(c(=O)c2c1)CCCCC3)c1ccc(OCC)cc1` , what EC50 is on record?
Result: > 47.3 µM

Task: Give the measured EC50 of CC(CNC(=O)c1cn(C2CCCCC2)cc(C(=O)NC(C)(C)C)c1=O)c1ccccc1 (stereo not given) .
Result: > 52.8 µM

----------
tested on: Plasmodium falciparum; assay: ST_JUDE: Cytotoxicity against Plasmodium falciparum 3D7; type: functional, organism-based
MEASURED METRIC: EC50 (nM)
Give the number; nM is assumed, so skip it.

Task: Query: EC50; subject: `O=C(Nc1cccc(Cl)c1N1CCOCC1)C(Cl)(Cl)Cl`
Result: 1540

Task: For the compound COc1ccc(C2CC3=NC(C)=C(C(=O)OC(C)C)C(c4ccccc4Cl)C3=C(O)C2)cc1OC (stereo not given) , what EC50 is on record?
Result: 87

Task: Given `CCOC(=O)C1(Cc2cccc(F)c2)CCN(Cc2ccccc2O)CC1` , state its recorded EC50.
Result: 1200

Task: Item under review: `CSC(=S)N/N=C(\c1ccccc1)c1ccccn1` . Reported EC50?
Result: 563

Task: Which measured EC50 value corresponds to `O=[N+]([O-])c1cc(CN2CCN(c3cccc(C(F)(F)F)c3)CC2)c2cccnc2c1O` ?
Result: 676
